target: hERG potassium channels (Homo sapiens, UniProt Q12809); construct: expressed in transfected cells; host or cells: HEK-293 (membranes); experiment: hERG binding assay ([35S]MK-499 displacement); conditions: 0.3 μM; [35S]MK-499, HEK-293 hERG membranes
Sequence (Q12809 whole entry): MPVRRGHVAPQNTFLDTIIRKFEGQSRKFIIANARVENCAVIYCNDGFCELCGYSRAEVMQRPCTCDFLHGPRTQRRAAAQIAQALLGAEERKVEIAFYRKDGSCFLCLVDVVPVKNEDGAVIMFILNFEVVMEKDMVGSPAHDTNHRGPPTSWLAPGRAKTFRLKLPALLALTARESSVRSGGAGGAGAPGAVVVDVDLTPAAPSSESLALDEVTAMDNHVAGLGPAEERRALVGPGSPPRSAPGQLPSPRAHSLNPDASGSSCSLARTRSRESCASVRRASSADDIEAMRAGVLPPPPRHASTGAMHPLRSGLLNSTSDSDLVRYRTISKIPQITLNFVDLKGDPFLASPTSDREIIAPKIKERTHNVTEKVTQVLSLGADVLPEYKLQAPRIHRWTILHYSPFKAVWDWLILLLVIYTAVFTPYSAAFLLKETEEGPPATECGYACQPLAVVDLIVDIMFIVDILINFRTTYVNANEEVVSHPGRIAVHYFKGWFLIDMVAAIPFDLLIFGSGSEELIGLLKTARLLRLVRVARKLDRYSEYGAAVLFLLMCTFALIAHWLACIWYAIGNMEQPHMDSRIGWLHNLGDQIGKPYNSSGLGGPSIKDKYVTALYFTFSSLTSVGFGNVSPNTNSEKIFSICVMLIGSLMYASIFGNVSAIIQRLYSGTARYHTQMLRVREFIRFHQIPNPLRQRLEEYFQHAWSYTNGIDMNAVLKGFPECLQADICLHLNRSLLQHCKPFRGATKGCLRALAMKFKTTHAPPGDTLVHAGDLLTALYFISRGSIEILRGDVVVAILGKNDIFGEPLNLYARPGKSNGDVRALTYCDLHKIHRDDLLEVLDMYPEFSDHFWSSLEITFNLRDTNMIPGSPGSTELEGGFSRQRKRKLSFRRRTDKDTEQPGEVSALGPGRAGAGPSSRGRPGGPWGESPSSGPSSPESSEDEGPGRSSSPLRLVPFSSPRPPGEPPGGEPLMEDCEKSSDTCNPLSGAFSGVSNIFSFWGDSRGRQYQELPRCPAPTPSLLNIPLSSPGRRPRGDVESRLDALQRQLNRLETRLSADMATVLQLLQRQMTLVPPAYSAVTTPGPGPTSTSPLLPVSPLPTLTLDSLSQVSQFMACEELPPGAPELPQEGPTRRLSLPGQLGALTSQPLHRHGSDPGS
recorded_endpoint: % inhibition for hERG assay, 0.3 μM (%)
# value in %; strip the unit string

Example entries begin here.
CCCCCCC[C@](O)(C(N)=O)c1cccc(Cl)c1 [Compound (R)-(−)-1] | 16
O=C1NC(=O)C(c2ccccc2)(c2ccccc2)N1 [DPH, Diphenylhydantoin, reference compound] | 9
CCCCCCC[C@@](O)(C(N)=O)c1cccc(Cl)c1 [Compound (S)-(+)-1] | 10

Now for the compound whose % inhibition for hERG assay, 0.3 μM we want.
I am curious: what % inhibition for hERG assay, 0.3 μM value has been reported for CCCCCCCC(O)(C(N)=O)c1cccc(Cl)c1 (racemic) [(±)-1] ?
15

Cited source: patent US8816095B2
